Listing of recorded viability, T/C by entry.
- Tested on: 349418-098-R-PDC complex spheroid viability;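 note: spheroids exposed to compound for seven days before viability readout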
- Experiment: Anticancer human tumor 349418-098-R-PDC patient-derived lung adenocarcinoma cell line growth inhibition [RAS]
- Experimental Conditions: second compound 0.0316 µM; first compound 0.003 µM; stronger effect = lower value
Respond with the bare value in %.

Recorded viability, T/C, per entry:
[
  {
    "Molecule": "CC1(C)CCC(Nc2ncc(C(F)(F)F)c(-c3c[nH]c4c(P(C)(C)=O)c(C#N)ccc34)n2)CN1 (centres undefined) + C=CC(=O)N1CCN(c2nc(OCC3CCCN3C)nc3c(F)c(-c4nc(N)cc(C)c4C(F)(F)F)c(Cl)cc23)C(C)C1",
    "Measured Property": "viability, T/C",
    "Unit Label": "%",
    "Measured Number": 23.3
  },
  {
    "Molecule": "CCc1c2c(nc3ccc(O)cc13)-c1cc3c(c(=O)n1C2)COC(=O)[C@]3(O)CC + C#Cc1c(F)ccc2cc(O)cc(-c3ncc4c(N5CC6CCC(C5)N6)nc(OCC56CCCN5CC(F)C6)nc4c3F)c12",
    "Measured Property": "viability, T/C",
    "Unit Label": "%",
    "Measured Number": 33.1
  },
  {
    "Molecule": "CCc1c2c(nc3ccc(O)cc13)-c1cc3c(c(=O)n1C2)COC(=O)[C@]3(O)CC + C=CC(=O)N1CCN(c2nc(OCC3CCCN3C)nc3c(F)c(-c4nc(N)cc(C)c4C(F)(F)F)c(Cl)cc23)C(C)C1",
    "Measured Property": "viability, T/C",
    "Unit Label": "%",
    "Measured Number": 31.7
  }
]

Task: Name the reported viability, T/C value associated with the molecule CC1(C)CCC(Nc2ncc(C(F)(F)F)c(-c3c[nH]c4c(P(C)(C)=O)c(C#N)ccc34)n2)CN1 (centres undefined) + C#Cc1c(F)ccc2cc(O)cc(-c3ncc4c(N5CC6CCC(C5)N6)nc(OCC56CCCN5CC(F)C6)nc4c3F)c12
Output: 25.6
